# Species on record: Homo sapiens
# PROCEDURE TEXT: Selectivity ratio of IC50 for inhibition of integrin alphavbeta3 (unknown origin) to IC50 for inhibition of integrin alphavbeta5 (unknown origin)
# Ratio IC50 per entry

{"COMPOUND": "O=C(O)C[C@H](C(=O)N1CC[C@@H](CCc2ccc3c(n2)NCCC3)C1)c1ccccc1", "Ratio IC50": 250}
{"COMPOUND": "O=C(O)C[C@H](C(=O)N1CC[C@@H](CCc2ccc3c(n2)NCCC3)C1)c1cc(Br)cc(Br)c1", "Ratio IC50": 320}
{"COMPOUND": "O=C(O)C[C@H](C(=O)N1CC[C@@H](CCc2ccc3c(n2)NCCC3)C1)c1ccc(Br)s1", "Ratio IC50": 20}
{"COMPOUND": "Cc1cccc([C@H](CC(=O)O)C(=O)N2CC[C@@H](CCc3ccc4c(n3)NCCC4)C2)c1", "Ratio IC50": 400}
{"COMPOUND": "O=C(O)C[C@H](C(=O)N1CC(CCCc2ccc3c(n2)NCCC3)C1)c1ccccc1", "Ratio IC50": 100}
{"COMPOUND": "O=C(O)C[C@H](C(=O)N1CC[C@@H](CCc2ccc3c(n2)NCCC3)C1)c1cccc(N2CCOCC2)c1", "Ratio IC50": 160}
{"COMPOUND": "O=C(O)C[C@H](C(=O)N1CCCC(CCc2ccc3c(n2)NCCC3)C1)c1ccccc1 (stereo partly specified)", "Ratio IC50": 13}
{"COMPOUND": "O=C(O)C[C@H](C(=O)N1CC[C@@H](CCc2ccc3c(n2)NCCC3)C1)c1cccc(C2CCCC2)c1", "Ratio IC50": 200}
{"COMPOUND": "O=C(O)C[C@H](C(=O)N1CC[C@@H](CCc2ccc3c(n2)NCCC3)C1)c1cc(Br)cs1", "Ratio IC50": 100}
{"COMPOUND": "O=C(O)C[C@H](C(=O)N1CC[C@@H](CCc2ccc3c(n2)NCCC3)C1)c1cccc(C2=CCCC2)c1", "Ratio IC50": 160}
{"COMPOUND": "O=C(O)C[C@@H](C(=O)N1CC[C@@H](CCc2ccc3c(n2)NCCC3)C1)c1cccc(Br)c1", "Ratio IC50": 5}
{"COMPOUND": "O=C(O)C[C@H](C(=O)N1CC[C@@H](CCc2ccc3c(n2)NCCC3)C1)c1cccc(C(F)(F)F)c1", "Ratio IC50": 800}
{"COMPOUND": "O=C(O)C[C@H](C(=O)N1CC[C@@H](CCc2ccc3c(n2)NCCC3)C1)c1cccc(-c2ccccc2)c1", "Ratio IC50": 320}
{"COMPOUND": "O=C(O)C[C@H](C(=O)N1CC(CCc2ccc3c(n2)NCCC3)C1)c1ccccc1", "Ratio IC50": 125}
{"COMPOUND": "O=C(O)C[C@H](C(=O)N1CC[C@@H](CCc2ccc3c(n2)NCCC3)C1)c1cccc(C2CC2)c1", "Ratio IC50": 800}
{"COMPOUND": "CN1CCN(c2cccc([C@H](CC(=O)O)C(=O)N3CC[C@@H](CCc4ccc5c(n4)NCCC5)C3)c2)CC1", "Ratio IC50": 125}
